Entries and their measured log10(EC50) follow.
# Test system: Human immunodeficiency virus 1
# procedure text: Antiviral activity against HIV-1 3B infected in human MT4 cells assessed as reduction in virus-induced cytopathic effect incubated for 5 days by MTT assay
# Type: functional, organism-based
# condition details: Human immunodeficiency virus 1, 3B, MT4, 120 h
Short version: log10 scale, EC50, nM.

Cc1cc(C)cc(S(=O)(=O)c2c(C(=O)N[C@H]3CCN(Cc4ccccc4C#N)C3)[nH]c3ccc(Cl)cc23)c1; 2.23
Cc1cc(C)cc(S(=O)(=O)c2c(C(=O)N[C@@H]3CCN(Cc4ccccc4C#N)C3)[nH]c3ccc(Cl)cc23)c1; 1.72
Cc1cc(C)cc(S(=O)(=O)c2c(C(=O)NC3CNC3)[nH]c3ccc(Cl)cc23)c1; 1.87
Cc1cc(C#N)cc(C)c1Oc1nc(Nc2ccc(C#N)cc2)nc(N)c1Br [ETRAVIRINE]; 0.76
Cc1cc(C)cc(S(=O)(=O)c2c(C(=O)NC3CN(Cc4ccccc4F)C3)[nH]c3ccc(Cl)cc23)c1; 1.48
Nc1ccn([C@@H]2CS[C@H](CO)O2)c(=O)n1 [LAMIVUDINE]; 3.59

Exercise: Which log10(EC50) is reported with Human immunodeficiency virus 1 for this entry: "Cc1cc(C)cc(S(=O)(=O)c2c(C(=O)N[C@H]3CCN(Cc4ccccc4F)C3)[nH]c3ccc(Cl)cc23)c1" ?
Solution: 1.92

Exercise: Which log10(EC50) is reported with Human immunodeficiency virus 1 for this entry: "Cc1cc(C)cc(S(=O)(=O)c2c(C(=O)NS(=O)(=O)C(F)(F)F)[nH]c3ccc(Cl)cc23)c1" ?
Solution: 2.56

###

Entries and their measured EC50 follow.
# System: Human immunodeficiency virus 1
# procedure text: Antiviral activity against drug resistant HIV-1 harboring reverse transcriptase F227L/V106A double mutant infected in human MT4 cells assessed as reduction in virus-induced cytopathic effect incubated for 5 days by MTT assay
# Assay type: functional, organism-based
# condition details: Human immunodeficiency virus 1, MT4, 120 h
Only the number, expressed in µM, is required.

Worked examples follow.
Cc1cc(C)cc(S(=O)(=O)c2c(C(=O)NS(=O)(=O)c3ccc(F)cc3)[nH]c3ccc(Cl)cc23)c1; 38.6
Cc1cc(C)cc(S(=O)(=O)c2c(C(N)=O)[nH]c3ccc(Cl)cc23)c1; 0.0096
Cc1cc(C)cc(S(=O)(=O)c2c(C(=O)NS(=O)(=O)c3ccccc3)[nH]c3ccc(Cl)cc23)c1; 7.4

Exercise: Item under review: "Cc1cc(C)cc(S(=O)(=O)c2c(C(=O)NS(=O)(=O)C(F)(F)F)[nH]c3ccc(Cl)cc23)c1" . Reported EC50?
Solution: 3.53

Exercise: Item under review: "CCS(=O)(=O)NC(=O)c1[nH]c2ccc(Cl)cc2c1S(=O)(=O)c1cc(C)cc(C)c1" . Reported EC50?
Solution: 11.3

Exercise: Item under review: Cc1cc(C#N)cc(C)c1Oc1nc(Nc2ccc(C#N)cc2)nc(N)c1Br [ETRAVIRINE] . Reported EC50?
Solution: 0.016

Exercise: Item under review: "Cc1cc(C)cc(S(=O)(=O)c2c(C(=O)NS(=O)(=O)C3CC3)[nH]c3ccc(Cl)cc23)c1" . Reported EC50?
Solution: 11.8

Exercise: Item under review: Nc1ccn([C@@H]2CS[C@H](CO)O2)c(=O)n1 [LAMIVUDINE] . Reported EC50?
Solution: 1.92

###

# procedure text: Selectivity index, ratio of CC50 for human MT4 cells to EC50 for antiviral activity against HIV IIIB
# Assay type: toxicity
# condition details: read-out: Ratio CC50/EC50
Returns one of true or false; true when selectivity ratio is >= 500.

Cc1cc(C)cc(S(=O)(=O)c2c(C(=O)N[C@@H]3CCN(CC(N)=O)C3)[nH]c3ccc(Cl)cc23)c1; true
Cc1cc(C)cc(S(=O)(=O)c2c(C(=O)NS(=O)(=O)C(F)(F)F)[nH]c3ccc(Cl)cc23)c1; false
Cc1cc(C)cc(S(=O)(=O)c2c(C(N)=O)[nH]c3ccc(Cl)cc23)c1; true
Cc1cc(C)cc(S(=O)(=O)c2c(C(=O)N[C@@H]3CCN(Cc4ccccc4F)C3)[nH]c3ccc(Cl)cc23)c1; true
Cc1cn([C@H]2C[C@H](N=[N+]=[N-])[C@@H](CO)O2)c(=O)[nH]c1=O; true

Exercise: Does the compound "Cc1cc(C)cc(S(=O)(=O)c2c(C(=O)N[C@H]3CCNC3)[nH]c3ccc(Cl)cc23)c1" have recorded selectivity ratio that is 500 or more?
Solution: false

Exercise: Does the compound "Cc1cc(C)cc(S(=O)(=O)c2c(C(=O)NCCP(=O)(O)O)[nH]c3ccc(Cl)cc23)c1" have recorded selectivity ratio that is 500 or more?
Solution: true

###

Entries and their measured selectivity ratio follow.
# procedure text: Selectivity index, ratio of CC50 for human MT4 cells to EC50 for antiviral activity against HIV IIIB
# Type: toxicity
# condition details: read-out: Ratio CC50/EC50
Output: the number by itself.

Worked examples follow.
Cc1cc(C)cc(S(=O)(=O)c2c(C(=O)N[C@H]3CCN(Cc4cccnc4)C3)[nH]c3ccc(Cl)cc23)c1; 2010
Cc1cc(C)cc(S(=O)(=O)c2c(C(=O)N[C@H]3CCN(Cc4n[nH]c(=O)n4C)C3)[nH]c3ccc(Cl)cc23)c1; 2980
Cc1cc(C)cc(S(=O)(=O)c2c(C(=O)NC3CN(Cc4n[nH]c(=O)n4C)C3)[nH]c3ccc(Cl)cc23)c1; 224

# next compound below
Exercise: Item under review: "Cc1cc(C)cc(S(=O)(=O)c2c(C(=O)N[C@@H]3CCN(Cc4ccccc4C#N)C3)[nH]c3ccc(Cl)cc23)c1" . Reported selectivity ratio?
Solution: 2580

###

# Test system: Human immunodeficiency virus 1
# procedure text: Antiviral activity against drug resistant HIV-1 harboring reverse transcriptase L100I mutant infected in human MT4 cells assessed as reduction in virus-induced cytopathic effect incubated for 5 days by MTT assay
# Format: functional, organism-based
# condition details: Human immunodeficiency virus 1, MT4, 120 h
measured quantity: EC50 (µM)
Only the number, expressed in µM, is required.

Cc1cc(C)cc(S(=O)(=O)c2c(C(=O)N[C@H]3CCN(CC(N)=O)C3)[nH]c3ccc(Cl)cc23)c1; 0.011

Exercise: Item under review: Cc1cn([C@H]2C[C@H](N=[N+]=[N-])[C@@H](CO)O2)c(=O)[nH]c1=O [ZIDOVUDINE] . Reported EC50?
Solution: 0.0049

Exercise: Item under review: Cc1ccnc2c1NC(=O)c1cccnc1N2C1CC1 [NEVIRAPINE] . Reported EC50?
Solution: 1.24

Exercise: Item under review: "Cc1cc(C)cc(S(=O)(=O)c2c(C(=O)NS(=O)(=O)c3ccc(F)cc3)[nH]c3ccc(Cl)cc23)c1" . Reported EC50?
Solution: 10

###

# procedure text: Cytotoxicity against human MT4 cells assessed as reduction in cell viability incubated for 5 days by MTT assay
# Format: cell-based
Entries and their measured CC50 at 120 h follow.
Only the number, expressed in µM, is required.

Worked examples follow.
Cc1cc(C)cc(S(=O)(=O)c2c(C(=O)NS(=O)(=O)C(F)(F)F)[nH]c3ccc(Cl)cc23)c1; 141
Cc1cc(C)cc(S(=O)(=O)c2c(C(=O)NC3CN(Cc4n[nH]c(=O)n4C)C3)[nH]c3ccc(Cl)cc23)c1; 25.2

# next compound below
Exercise: Item under review: "Cc1cc(C)cc(S(=O)(=O)c2c(C(=O)NS(=O)(=O)c3ccccc3)[nH]c3ccc(Cl)cc23)c1" . Reported CC50 at 120 h?
Solution: 167

###

Entries and their measured EC50 follow.
# System: Human immunodeficiency virus 1
# procedure text: Antiviral activity against drug resistant HIV-1 harboring reverse transcriptase Y188L mutant infected in human MT4 cells assessed as reduction in virus-induced cytopathic effect incubated for 5 days by MTT assay
# Assay type: functional, organism-based
# condition details: Human immunodeficiency virus 1, MT4, 120 h
Only the number, expressed in µM, is required.

Worked examples follow.
Cc1cc(C)cc(S(=O)(=O)c2c(C(=O)NC3CN(Cc4n[nH]c(=O)n4C)C3)[nH]c3ccc(Cl)cc23)c1; 2.16
Cc1cc(C#N)cc(C)c1Oc1nc(Nc2ccc(C#N)cc2)nc(N)c1Br; 0.023
Cc1cc(C)cc(S(=O)(=O)c2c(C(=O)N[C@H]3CCN(CC(N)=O)C3)[nH]c3ccc(Cl)cc23)c1; 0.31

Exercise: Item under review: "Cc1cn([C@H]2C[C@H](N=[N+]=[N-])[C@@H](CO)O2)c(=O)[nH]c1=O" . Reported EC50?
Solution: 0.0075

Exercise: Item under review: "Nc1ccn([C@@H]2CS[C@H](CO)O2)c(=O)n1" . Reported EC50?
Solution: 4.45

Exercise: Item under review: "O=C1Nc2ccc(Cl)cc2[C@@](C#CC2CC2)(C(F)(F)F)O1" . Reported EC50?
Solution: 0.27
